Reported Cmax values for a set of compounds
# assay comment: Pharmacokinetic evaluation in SD rats after oral administration by single gavage
# Assay type: in vivo
# condition info: rat; male SD rats, PO 75 mg/kg, plasma
Numeric answer only, unit ng/mL assumed.

NS(=O)(=O)NC1(CONc2nonc2/C(=N/O)Nc2ccc(F)c(Br)c2)CC1 [Compound I-20]    4240
O=C(NCCONc1nonc1/C(=N/O)Nc1ccc(F)c(Br)c1)Nc1cc(F)cc(F)c1 [Compound I-40]    4760
NS(=O)(=O)NCCNc1nonc1C(=NO)Nc1ccc(F)c(Br)c1 [INCB024360, Epacadostat, reference compound]    3940

Report Cmax for NS(=O)(=O)NCCONc1nonc1/C(=N/O)Nc1ccc(F)c(Br)c1 [Compound I-24]
8760

----------
# assay comment: Pharmacokinetic evaluation in SD rats after oral administration by single gavage
# Assay type: in vivo
# condition info: rat; male SD rats, PO 75 mg/kg, plasma
measured property: AUC(0-inf) (ng·h/mL)
Numeric answer only, unit ng·h/mL assumed.

As a guide, the following entries are already answered.
NS(=O)(=O)NCCNc1nonc1C(=NO)Nc1ccc(F)c(Br)c1 [INCB024360, Epacadostat, reference compound]    12200
O=C(NCCONc1nonc1/C(=N/O)Nc1ccc(F)c(Br)c1)Nc1cc(F)cc(F)c1    8250
NS(=O)(=O)NC1(CONc2nonc2/C(=N/O)Nc2ccc(F)c(Br)c2)CC1    2390

Attention now turns to another entry.
Report AUC(0-inf) for NS(=O)(=O)NCCONc1nonc1/C(=N/O)Nc1ccc(F)c(Br)c1
20700
